procedure.details: HEK293 cell cytotoxicity, dose response, cytotoxicity control, plate reader, cherry-picked samples (AID 743446)
test.parameters: active compounds read low; at 26 µM unless noted
Measured potencies and affinities stand elsewhere. Active and inactive are the calls of the source. How the calls were made is not given here.
Reported max activity by item:
reported.property: max activity

INSERT INTO assay_data (molecule, endpoint_result) VALUES
  ('c1ccc(-n2cnnc2SCc2cn3cccnc3n2)cc1', '82.5% [at 0.8 µM] (inactive)'),
  ('c1nc(CCO[C@H]2CCCCO2)cc2cc3c(cc12)OCO3', '9.43% (inactive)'),
  ('O=C(CCCc1ccccc1)Nc1cccc(C(=O)O)c1', '48.9% (inactive)'),
  ('C[C@H](CO)N1C[C@H](C)[C@H](CN(C)C(=O)Nc2ccc3c(c2)OCO3)OCCCC[C@H](C)Oc2ccc(NC(=O)NC3CCCCC3)cc2C1=O', '-16.6% (inactive)'),
  ('N#C[C@H]1[C@@H](c2ccc(C3=CCCCC3)cc2)[C@H](CO)N1C(=O)c1ccccn1', '74.4% [at 12 µM] (inactive)'),
  ('COc1ccc(C(=O)Nc2nnc(-c3ccco3)s2)cc1', '-21.3% [at 3 µM] (inactive)'),
  ('CC(C)Oc1ccc(CNC(=O)CC(c2ccccc2)c2cc(Cl)ccc2O)cc1 (stereo not given)', '29.6% [at 0.8 µM] (inactive)'),
  ('CCNC(=S)NNC(=O)c1cc(-c2ccc(OCC)cc2)nc2ccccc12', '15.8% [at 0.05 µM] (inactive)'),
  ('COc1ccc(CCNC(=O)C2CCN(S(=O)(=O)c3ccc(Cl)cc3)CC2)cc1OC', '-15% [at 0.05 µM] (inactive)'),
  ('O=C(NCCc1ccc(Cl)cc1)c1ccc2c(c1)OCCO2', '19.7% [at 0.8 µM] (inactive)');

###

procedure.details: HEK293 cell cytotoxicity, dose response, cytotoxicity control, plate reader, cherry-picked samples (AID 743446)
test.parameters: active compounds read low; at 26 µM unless noted
Potency and affinity values are given separately. The source made the active and inactive calls. No rule for the calls is given here.
reported.property: max activity

INSERT INTO measurements (molecule, endpoint_result) VALUES
  ('COc1ccc(NC(=O)N(C)C[C@@H]2OCCCC[C@H](C)Oc3ccc(NC(=O)C4CCCCC4)cc3C(=O)N([C@H](C)CO)C[C@@H]2C)cc1', '11.8% (inactive)'),
  ('Cn1cnc(S(=O)(=O)N2C[C@@H](O)COC[C@H]3O[C@H](CC(=O)NC4CCCC4)CC[C@@H]32)c1', '13.5% [at 0.38 µM] (inactive)'),
  ('CC1CN(C(=O)c2cccc(S(=O)(=O)Nc3cc(Cl)ccc3Cl)c2)CC(C)O1 (stereo unspecified)', '5.34% (inactive)'),
  ('COCC#Cc1ccc2c(c1)O[C@H](CN(C)S(=O)(=O)c1cccc(F)c1)[C@@H](C)CN([C@H](C)CO)S2(=O)=O', '14.5% [at 0.195 µM] (inactive)'),
  ('C=CCN1CCN(C(=O)CCCc2ccccc2)CC1', '69.3% [at 12 µM] (inactive)'),
  ('C[C@@H]1CN([C@H](C)CO)C(=O)CCCn2nncc2CO[C@H]1CN(C)C(=O)Nc1cccc2ccccc12', '15.4% (inactive)'),
  ('N#C[C@@H]1[C@H](c2ccc(C#CC3CCCCC3)cc2)[C@@H](CO)N1S(=O)(=O)c1ccccc1', '39.8% [at 12 µM] (inactive)'),
  ('Cc1ccc(-c2nc(-c3ccncc3)no2)c(Cl)c1', '10% [at 1.6 µM] (inactive)'),
  ('C[C@@H]1CN([C@@H](C)CO)C(=O)c2cccc(NC(=O)Nc3ccc(C(F)(F)F)cc3)c2O[C@H]1CN(C)C(=O)Nc1cccc2ccccc12', '14.8% [at 6 µM] (inactive)'),
  ('Cc1cc(-c2ccccc2)n2ncc(-c3ccccc3)c2n1', '19.9% [at 0.8 µM] (inactive)'),
  ('COc1ccc(C(=O)CN2C(=O)c3ccccc3S2(=O)=O)cc1', '-13.3% [at 0.05 µM] (inactive)'),
  ('O=C(c1ccc2c(c1)OCCO2)C1CCN(S(=O)(=O)c2ccc(F)cc2)CC1', '25.1% [at 0.1 µM] (inactive)'),
  ('CC1(c2ccccc2Cl)NC(=O)N(CC(=O)N2CCc3ccccc32)C1=O (stereo unspecified)', '40.9% (inactive)'),
  ('Cc1ccc(NC(=O)c2sc3ccccc3c2Cl)nc1', '24.8% [at 12 µM] (inactive)'),
  ('COc1ccc(-n2ncc3c(N(C)C4CCCCC4)ncnc32)cc1', '31.2% [at 0.05 µM] (inactive)'),
  ('Cc1ccc(NC(=O)c2ncn(CC(=O)N3CCN(c4ccccn4)CC3)n2)cc1C', '-13.4% [at 0.195 µM] (inactive)');

###

procedure.details: HEK293 cell cytotoxicity, dose response, cytotoxicity control, plate reader, cherry-picked samples (AID 743446)
test.parameters: active compounds read low; at 26 µM unless noted
Measured potencies and affinities stand elsewhere. Calls of active or inactive are those of the source. The rule behind the calls is not given here.
Reported max activity by item:
reported.property: max activity

INSERT INTO assay_data (smiles, reported_property, endpoint_result) VALUES
  ('Cc1ccc(C(=O)NCCc2cccs2)cc1', 'max activity', '37.3% [at 3 µM] (inactive)'),
  ('O=C(O)c1ccc(N/N=C/c2c[nH]c3ccccc23)cc1', 'max activity', '10.4% [at 3 µM] (inactive)'),
  ('CC(=O)Nc1ccc(S(=O)(=O)c2ccnc3cc(Cl)ccc23)cc1', 'max activity', '-26.3% [at 12 µM] (inactive)'),
  ('CCCNC(=O)Nc1ccc2c(c1)C(=O)N(C)C[C@H](OC)[C@H](C)CN(Cc1ccc(-c3ccccn3)cc1)[C@@H](C)CO2', 'max activity', '32.1% [at 0.75 µM] (inactive)'),
  ('CC(C)CCn1cnc2c(oc3nc4c(cc32)CCCC4)c1=O', 'max activity', '-17.8% (inactive)'),
  ('COCCn1c(C)cc(C(=O)CSc2nc3ccccc3s2)c1C', 'max activity', '-17.4% (inactive)'),
  ('C[C@H](CO)N1C[C@H](C)[C@H](CN(C)C(=O)Cc2ccccc2)OCCCC[C@H](C)Oc2ccc(NC(=O)Nc3ccc(C(F)(F)F)cc3)cc2C1=O', 'max activity', '12.5% [at 3 µM] (inactive)'),
  ('Cc1c(NC(=O)c2cccc(NC(=O)COc3ccccc3C#N)c2)c(=O)n(-c2ccccc2)n1C', 'max activity', '-14.7% [at 3 µM] (inactive)'),
  ('CCCc1ccc(-c2ccc(F)c(N)c2)nc1', 'max activity', '-20.7% [at 12 µM] (inactive)');

###

Reported max activity by item:
procedure.details: HEK293 cell cytotoxicity, dose response, cytotoxicity control, plate reader, cherry-picked samples (AID 743446)
test.parameters: active compounds read low; at 26 µM unless noted
Entries with a potency or affinity are not part of this list. Calls of active or inactive are those of the source. The rule behind the calls is not given here.
reported.property: max activity

INSERT INTO assay_data (smiles, endpoint_result) VALUES
  ('O=c1c2c(nc3cc(-c4ccc(F)cc4)[nH]n13)CCCC2', '-12.8% (inactive)'),
  ('O=C(CN1C(=O)c2ccccc2S1(=O)=O)c1ccc(F)c(F)c1', '11.6% (inactive)'),
  ('COc1ccc(-n2nnnc2-c2nc3ccccc3s2)cc1', '34.3% [at 0.8 µM] (inactive)'),
  ('Cc1c(NC(=O)c2ccc(-c3ccccc3)cc2)cccc1C(=O)O', '41.3% (inactive)'),
  ('Cc1ccoc1C(=O)Nc1ccc2ccccc2c1', '-16.8% [at 0.1 µM] (inactive)'),
  ('COc1ccc(C(=O)Nc2nnc(SCC(=O)NCc3ccco3)s2)c(OC)c1', '15% (inactive)');
